Test system: p38-gamma
Construct: gene MAPK12
experimentalContext: Compound Concentration (nM):1000;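 further: KINOMEscan scanMAX binding as percent activity remaining versus control; lower means stronger binding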
Strictly below 60% in Percent Control: yes. Otherwise: no.

[[record]]
compound = "CN(C)c1cc2c(Nc3ccc4c(cnn4Cc4ccccc4)c3)ncnc2cn1 [GW282974X]"
assayedsystem = "p38-gamma"
cat = "no"

[[record]]
compound = "Nc1ncnc2occ(-c3ccc(NC(=O)Nc4cc(C(F)(F)F)ccc4F)cc3)c12 [GW770249X]"
assayedsystem = "p38-gamma"
cat = "yes"

[[record]]
compound = "COc1cc(N2CCN(C(C)C)CC2)ccc1Nc1nc(Nc2ccc(F)cc2C(=O)NC[C@@H](O)CO)c2cc[nH]c2n1 [GSK1392956A]"
assayedsystem = "p38-gamma"
cat = "no"

[[record]]
compound = "NS(=O)(=O)c1ccc(N/N=C2\\C(=O)Nc3ccc(C(=O)NCc4ccncc4)cc32)cc1 [GW300657X]"
assayedsystem = "p38-gamma"
cat = "yes"

[[record]]
compound = "COc1cc(/C=N/Nc2ncnc3[nH]ncc23)ccc1O [GW578748X]"
assayedsystem = "p38-gamma"
cat = "no"

[[record]]
compound = "CCS(=O)(=O)c1ccc(OC)c(Nc2ncc(-c3cccc(F)c3)o2)c1 [GW621970X]"
assayedsystem = "p38-gamma"
cat = "no"

[[record]]
compound = "COc1ccccc1-c1cc(/C=C2\\C(=O)Nc3ncc(Br)cc32)cc(Br)c1O [GW442130X]"
assayedsystem = "p38-gamma"
cat = "yes"


----------
Consider the following compounds and their measured Percent Control readings.
System: INSR
experimentalContext: Compound Concentration (nM):1000
measuredMetric: Percent Control

[[record]]
compound = "CCS(=O)(=O)c1ccc(OC)c(Nc2ncc(-c3cccc(F)c3)o2)c1 [GW621970X]"
measuredmetric = "Percent Control"
observedvalue = "100%"

[[record]]
compound = "CCc1ccc(Oc2nccc(-c3c(-c4ccc(F)cc4)ncn3C3CCNCC3)n2)cc1 [SB-242719]"
measuredmetric = "Percent Control"
observedvalue = "77%"

[[record]]
compound = "O=C(Nc1n[nH]c2nc(-c3ccc(O)cc3)c(Br)cc12)C1CC1 [SB-725317]"
measuredmetric = "Percent Control"
observedvalue = "100%"

[[record]]
compound = "C[C@@H](Oc1cc(-n2cnc3ccc(OC4CCN(C)CC4)cc32)sc1C(N)=O)c1ccccc1Cl [GSK579289A]"
measuredmetric = "Percent Control"
observedvalue = "64%"

[[record]]
compound = "COc1ccccc1-c1cc(/C=C2\\C(=O)Nc3ncc(Br)cc32)cc(Br)c1O [GW442130X]"
measuredmetric = "Percent Control"
observedvalue = "87%"

[[record]]
compound = "NS(=O)(=O)c1ccc(N/N=C2\\C(=O)Nc3ccc(-c4cnco4)cc32)cc1 [GW276655]"
measuredmetric = "Percent Control"
observedvalue = "73%"

[[record]]
compound = "COc1cc(C=NNc2ncnc3c2cnn3-c2ccccc2)ccc1O [GW513184X]"
measuredmetric = "Percent Control"
observedvalue = "100%"

[[record]]
compound = "NS(=O)(=O)c1ccc(N/N=C2\\C(=O)Nc3ccc(C(=O)NCc4ccncc4)cc32)cc1 [GW300657X]"
measuredmetric = "Percent Control"
observedvalue = "100%"

[[record]]
compound = "CCn1c(-c2nonc2N)nc2c(C#CC(C)(C)O)nc(OCCNC)cc21.Cl [GSK949675]"
measuredmetric = "Percent Control"
observedvalue = "100%"


----------
// reported Percent Control per item
System: EGFR(L747-T751del,Sins)
experimentalContext: Compound Concentration (nM):1000
measuredMetric: Percent Control (%)

[[record]]
compound = "COc1ccc2c(-c3ccnc(Nc4cccc(OC(F)(F)F)c4)n3)cnn2n1 [GW810372X]"
unitdescriptor = "%"
observedvalue = 100

[[record]]
compound = "CC1=C(C(=O)Nc2ccc3[nH]ncc3c2)C(c2ccc(Cl)c(Cl)c2)CC(=O)N1 (stereo not shown) [GSK299115A]"
unitdescriptor = "%"
observedvalue = 100

[[record]]
compound = "COc1ccc(COc2ccc(Cc3cnc(N)nc3N)cc2OC)cc1 [GW632580X]"
unitdescriptor = "%"
observedvalue = 99

[[record]]
compound = "NS(=O)(=O)c1ccc(N/N=C2\\C(=O)Nc3ccc(Cl)cc32)cc1 [GW280670X]"
unitdescriptor = "%"
observedvalue = 100


----------
Below, each entry is listed alongside its reported Percent Control.
System: JNK1
Construct: gene MAPK8
experimentalContext: Compound Concentration (nM):1000
measuredMetric: Percent Control (%)

[[record]]
compound = "CCS(=O)(=O)c1ccc(OC)c(Nc2ncc(-c3cccc(F)c3)o2)c1 [GW621970X]"
assayedsystem = "JNK1"
observedvalue = 69

[[record]]
compound = "COc1cc(C)c(N(C)C(=O)CN(C)C)cc1Nc1nc(Nc2cccc(F)c2C(N)=O)c2cc[nH]c2n1"
assayedsystem = "JNK1"
observedvalue = 88

[[record]]
compound = "NS(=O)(=O)c1ccc(N/N=C2\\C(=O)Nc3ccc(C(=O)NCc4ccncc4)cc32)cc1 [GW300657X]"
assayedsystem = "JNK1"
observedvalue = 55

[[record]]
compound = "C[C@@H](Oc1cc(-n2cnc3ccc(OC4CCN(C)CC4)cc32)sc1C(N)=O)c1ccccc1Cl [GSK579289A]"
assayedsystem = "JNK1"
observedvalue = 82

[[record]]
compound = "CC(C)COC(=O)c1ccc2c(c1)/C(=C/Nc1ccc(S(N)(=O)=O)cc1)C(=O)N2 [GW416981X]"
assayedsystem = "JNK1"
observedvalue = 44

[[record]]
compound = "COc1cc(N2CCN(C(C)C)CC2)ccc1Nc1nc(Nc2ccc(F)cc2C(=O)NC[C@@H](O)CO)c2cc[nH]c2n1 [GSK1392956A]"
assayedsystem = "JNK1"
observedvalue = 0

[[record]]
compound = "CCc1ccc(Oc2nccc(-c3c(-c4ccc(F)cc4)ncn3C3CCNCC3)n2)cc1"
assayedsystem = "JNK1"
observedvalue = 65

[[record]]
compound = "COC(=O)Nc1nc2ccc(Oc3ccc(NC(=O)Nc4cc(C(F)(F)F)ccc4F)cc3)cc2s1.Cl [GW693917A]"
assayedsystem = "JNK1"
observedvalue = 87

[[record]]
compound = "COc1ccc(COc2ccc(Cc3cnc(N)nc3N)cc2OC)cc1 [GW632580X]"
assayedsystem = "JNK1"
observedvalue = 85

[[record]]
compound = "COc1cc2ncnc(Nc3ccc4c(cnn4Cc4ccccc4)c3)c2cc1OC.Cl [GW282449A]"
assayedsystem = "JNK1"
observedvalue = 100

[[record]]
compound = "NS(=O)(=O)c1ccc(Nc2ncc(-c3ccccc3)o2)cc1 [GW572399X]"
assayedsystem = "JNK1"
observedvalue = 64

[[record]]
compound = "COc1cccc(-n2ncc3c(N/N=C/c4ccncc4)ncnc32)c1 [GW784752X]"
assayedsystem = "JNK1"
observedvalue = 99

[[record]]
compound = "Cc1cc(O)cc(C)c1/C=C/c1cncc(C(N)=O)c1 [GW435821X]"
assayedsystem = "JNK1"
observedvalue = 84

[[record]]
compound = "Cl.O=C(Nc1ccc(Oc2ccc3[nH]c(NC(=O)c4ccccc4)nc3c2)cc1)Nc1cc(C(F)(F)F)ccc1F [GW709042A]"
assayedsystem = "JNK1"
observedvalue = 85

[[record]]
compound = "Cl.c1ccc(Cc2nc3ccc(Nc4ncnc5ccccc45)cc3[nH]2)cc1 [GR269666A]"
assayedsystem = "JNK1"
observedvalue = 91

[[record]]
compound = "Nc1ncnc2occ(-c3ccc(NC(=O)Nc4cc(C(F)(F)F)ccc4F)cc3)c12 [GW770249X]"
assayedsystem = "JNK1"
observedvalue = 99

[[record]]
compound = "COc1ccc2[nH]c3c4[nH]c5ccc(OC)cc5c4c4c(c3c2c1)C(=O)NC4=O [GW296115X]"
assayedsystem = "JNK1"
observedvalue = 82

[[record]]
compound = "CCn1c(-c2nonc2N)nc2c(C#CC(C)(C)O)nc(OCCNC)cc21.Cl"
assayedsystem = "JNK1"
observedvalue = 97

[[record]]
compound = "NS(=O)(=O)c1ccc(N/N=C2\\C(=O)Nc3ccc(-c4cnco4)cc32)cc1"
assayedsystem = "JNK1"
observedvalue = 87

[[record]]
compound = "Cl.O=C(O[C@H]1CN[C@H](C#Cc2cc3ncnc(Nc4ccc5c(cnn5Cc5ccccc5)c4)c3s2)C1)N1CCOCC1 [GSK200398A]"
assayedsystem = "JNK1"
observedvalue = 90


----------
System: MINK
Construct: gene MINK1
experimentalContext: Compound Concentration (nM):1000
Group membership follows Percent Control per the scheme bottom range (below 60%), center range (60% to below 90%), top range (90% or more)

[[record]]
molecule = "CN(C)c1cc2c(Nc3ccc4c(cnn4Cc4ccccc4)c3)ncnc2cn1 [GW282974X]"
assayedsystem = "MINK"
cat = "top range"

[[record]]
molecule = "COc1cc(N2CCN(C(C)C)CC2)ccc1Nc1nc(Nc2ccc(F)cc2C(=O)NC[C@@H](O)CO)c2cc[nH]c2n1 [GSK1392956A]"
assayedsystem = "MINK"
cat = "center range"

[[record]]
molecule = "NS(=O)(=O)c1ccc(Nc2ncc(-c3ccccc3)o2)cc1 [GW572399X]"
assayedsystem = "MINK"
cat = "bottom range"

[[record]]
molecule = "Cl.O=C(Nc1ccc(Oc2ccc3[nH]c(NC(=O)c4ccco4)nc3c2)cc1)Nc1cc(C(F)(F)F)ccc1F [GW683134A]"
assayedsystem = "MINK"
cat = "top range"

[[record]]
molecule = "COC(=O)Nc1nc2ccc(Oc3ccc(NC(=O)Nc4cc(C(F)(F)F)ccc4F)cc3)cc2s1.Cl [GW693917A]"
assayedsystem = "MINK"
cat = "center range"

[[record]]
molecule = "Nc1ncnc2occ(-c3ccc(NC(=O)Nc4cc(C(F)(F)F)ccc4F)cc3)c12 [GW770249X]"
assayedsystem = "MINK"
cat = "bottom range"

[[record]]
molecule = "CCS(=O)(=O)c1ccc(OC)c(Nc2ncc(-c3cccc(OC)c3)o2)c1 [GW580509X]"
assayedsystem = "MINK"
cat = "center range"

[[record]]
molecule = "COc1ccc2c(-c3ccnc(Nc4cccc(OC(F)(F)F)c4)n3)cnn2n1 [GW810372X]"
assayedsystem = "MINK"
cat = "top range"

[[record]]
molecule = "COc1ccccc1-c1cc(/C=C2\\C(=O)Nc3ncc(Br)cc32)cc(Br)c1O [GW442130X]"
assayedsystem = "MINK"
cat = "top range"

[[record]]
molecule = "COc1cc(C)c(N(C)C(=O)CN(C)C)cc1Nc1nc(Nc2cccc(F)c2C(N)=O)c2cc[nH]c2n1 [GSK2219385]"
assayedsystem = "MINK"
cat = "center range"

[[record]]
molecule = "COc1cccc(-c2c[nH]c3c(N/N=C/c4ccncc4)ncnc23)c1 [GW814408X]"
assayedsystem = "MINK"
cat = "bottom range"

[[record]]
molecule = "CN1CCN(C(=O)c2ccc(NC(=O)Nc3ccc(N(C)c4ccnc(Nc5ccc(CS(C)(=O)=O)cc5)n4)cc3)cc2)CC1.Cl [GW830263A]"
assayedsystem = "MINK"
cat = "bottom range"


Where these numbers come from: paper PMC7826789
